# system name: human CD3 expressed on cells (Jurkat cells, a CD3+ human T-cell line; human PBMC T cells) (human, UniProt P07766 23-207; P04234 22-171)
# Sequence (P07766 23-207 limits assumed, chain 1 of 2): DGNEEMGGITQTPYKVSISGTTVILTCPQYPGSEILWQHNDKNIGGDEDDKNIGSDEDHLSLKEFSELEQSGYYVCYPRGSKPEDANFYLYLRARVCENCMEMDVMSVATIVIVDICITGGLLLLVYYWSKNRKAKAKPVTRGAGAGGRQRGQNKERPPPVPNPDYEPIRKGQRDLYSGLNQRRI
# Sequence (P04234 22-171 limits assumed, chain 2 of 2): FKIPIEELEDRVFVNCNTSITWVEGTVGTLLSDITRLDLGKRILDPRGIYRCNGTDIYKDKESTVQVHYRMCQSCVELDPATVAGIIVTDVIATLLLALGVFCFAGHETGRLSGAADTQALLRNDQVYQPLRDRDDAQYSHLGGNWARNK
# test method notes: cell-based or functional assay
reported property: EC50 [M] hPBMC Proliferation
In your response, put the unit directly after the numeric value.

Value lookup for EC50 [M] hPBMC Proliferation; key = H2M2862N (antibody, mouse IgG2, V domains shown, H2M: mouse IgG2 Fc, human variable regions; divalent) VH: QVQLVESGGGVVQPGRSLRLSCAASGFTFRSYGMHWVRQAPGKGLEWVAMIYYDGNNKKYADSVRGRFTISRDNSKNTLYLQMNSLRVEDTAVYFCARGPGYNWLDPWGQGTLVTVSS VL: EIVMTQSPATLSVSPGERATLSCRASQSVSRNLAWYQQKPGQAPRLLIYGASTRATDIPARFSGSGSGTEFILNISSLQSEDFALYYCQQYSNWPLTFGGGTEVEIK
6.72e-13 M
